// values below are reported pEC50
- SYSTEM_TESTED: N-biotinyl-Aβ(1–42) (bioAβ42) oligomer assembly (Homo sapiens, UniProt P05067)
- Construct: N-biotinyl Aβ(1–42) (bioAβ42) was purchased from Anaspec; purchased Anaspec (Fremont, CA, USA) AS-23523-05
- Sequence (P05067 672-713): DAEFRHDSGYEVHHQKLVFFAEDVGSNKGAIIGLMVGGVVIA
- METHOD_DESCRIPTION: biochemical
- COND: concentration range 50 to 1.56 μM; duplicate, n = 3 independent experiments, ± SDEV; read-out: EC50 against bioAβ42 oligomer assembly
pEC50 here: minus log base 10 of the concentration, concentration in moles per litre.

Worked cases, answers included:
>  <COMPOUND>
COc1cc2c(cc1OCCCCCCOc1ccc(C(=O)/C=C/c3ccc(N(C)C)cc3)cc1)C(=O)C(CC1CCN(Cc3ccccc3)CC1)C2 (stereo not drawn) [16c]

>  <ATTRIBUTE_MEASURED>
pEC50

>  <ASSAY_RESULT>
5.59

$$$$
>  <COMPOUND>
COc1cc2c(cc1OCCCCCCOc1cccc(C(=O)/C=C/c3ccc(N(C)C)cc3)c1)C(=O)C(CC1CCN(Cc3ccccc3)CC1)C2 (stereo not drawn) [15c]

>  <ATTRIBUTE_MEASURED>
pEC50

>  <ASSAY_RESULT>
5.06

$$$$

Quickly give me recorded pEC50 for COc1cc2c(cc1OCCCCOc1cccc(C(=O)/C=C/c3ccc(N(C)C)cc3)c1)C(=O)C(CC1CCN(Cc3ccccc3)CC1)C2 (stereo not drawn) [15b]
5.39

Specify reported pEC50 for the compound shown: COc1cc2c(cc1OCCCCCCCCOc1cccc(C(=O)/C=C/c3ccc(N(C)C)cc3)c1)C(=O)C(CC1CCN(Cc3ccccc3)CC1)C2 (stereo not drawn) [15d]
5.01

Provide pEC50 value for the following compound: COc1cc2c(cc1OCCCCCCCCOc1ccc(C(=O)/C=C/c3ccc(N(C)C)cc3)cc1)C(=O)C(CC1CCN(Cc3ccccc3)CC1)C2 (stereo not drawn) [16d]
5.38

For the compound COc1cc2c(cc1OCCCCOc1ccc(C(=O)/C=C/c3ccc(N(C)C)cc3)cc1)C(=O)C(CC1CCN(Cc3ccccc3)CC1)C2 (stereo not drawn) [16b] , report pEC50.
5.70

Specify reported pEC50 for the compound shown: COc1cc2c(cc1OCCCCCCCCCCOc1ccc(C(=O)/C=C/c3ccc(N(C)C)cc3)cc1)C(=O)C(CC1CCN(Cc3ccccc3)CC1)C2 (stereo not drawn) [16e]
5.01
